# Recorded conditions: a range is the spread between reports
Readout type: melting point

QUERY: Return value of melting point for input Nc1cccc([N+](=O)[O-])c1 , no commentary.
RESULT: 112 to 114 °C

QUERY: Please give the documented melting point of O=C(O)CCCc1ccccc1
RESULT: 48 to 52 °C

QUERY: Supply melting point value. Item: CCCCCCCCCCCCCCCCCCO
RESULT: 58 to 61 °C

QUERY: Please report melting point for the following compound: CC(=O)c1ccc(O)cc1
RESULT: 107 to 110 °C

QUERY: Supply recorded melting point for CCCCCCCCCC#N here.
RESULT: -17.9 to -15 °C

---

# Recorded conditions: a range is the spread between reports
Readout type: melting point

QUERY: Give the reported melting point for this molecule. CCC(C)(C)C(C)C
RESULT: -101 °C

QUERY: In one line, give reported melting point of the entry CCCCCCS .
RESULT: -81 to -80 °C

QUERY: Quote melting point reported for COC(=O)c1ccc(I)cc1 please.
RESULT: 115 °C

QUERY: Annotate the molecule CC(=O)c1ccc(Cl)cc1 with its measured melting point.
RESULT: 18 to 20 °C

QUERY: Indicate its recorded melting point; the molecule in question is COc1ccc2[nH]ccc2c1
RESULT: 54 to 57 °C

QUERY: Tell us which melting point value is on record for O=C(O)c1ccccc1N=Nc1ccc(O)cc1
RESULT: 205 to 206 °C

QUERY: Find the measured melting point of COc1cc(N)ccc1C and report it.
RESULT: 56.5 to 58 °C

QUERY: Fill in reported melting point for this entry: O=[N+]([O-])c1ccc(Cl)cc1
RESULT: 83.5 to 84 °C

QUERY: Report measured melting point; entry is COc1ccc([N+](=O)[O-])c(OC)c1
RESULT: 74 to 76.5 °C

---

I'd appreciate it if you could supply melting point values for the items below.
# Recorded conditions: a range is the spread between reports

QUERY: Tell us which melting point value is on record for Cc1c(C(=O)O)cc([N+](=O)[O-])cc1[N+](=O)[O-]
RESULT: 205 to 206 °C

QUERY: Respond only with melting point recorded for Clc1ncccn1
RESULT: 66 to 67 °C

QUERY: Answer with the recorded melting point of Nc1ccccn1 only.
RESULT: 57.5 to 58 °C

QUERY: Let me know recorded melting point for Clc1cc(Cl)nc(Cl)n1 , thanks.
RESULT: 22.5 to 23 °C

QUERY: Please report the measured melting point for Oc1ccc2ccccc2c1-c1c(O)ccc2ccccc12
RESULT: 216 to 217 °C

QUERY: Supply measured melting point of COC(F)(F)C(Cl)Cl in your reply.
RESULT: -36 to -35 °C

QUERY: Please supply the value of reported melting point for the item CNC(C)=O
RESULT: 27 to 28 °C

QUERY: // Input: O=Cc1ccccc1 . Output its melting point only.
RESULT: -56.9 to -55.6 °C

QUERY: Check the records and state melting point for CC(Br)CCCBr (stereo unspecified)
RESULT: -34.4 to -34 °C

QUERY: Tell us which melting point value is on record for CC(C)(C)C1CCCCC1
RESULT: -41.2 to -41 °C

QUERY: Give a short answer stating reported melting point for CC(CCC(=O)O)C1CCC2C3C(O)CC4CC(O)CCC4(C)C3CC(O)C12C (stereo unspecified) .
RESULT: 198 to 201 °C

QUERY: Find the measured melting point of NCCN1CCOCC1 and report it.
RESULT: 24 to 25.6 °C

QUERY: Query melting point for Nc1ccc2cc3ccccc3cc2c1
RESULT: 235 to 239 °C

QUERY: Tell me measured melting point for CCCOC1CCC2(C)C(CC(=O)C3C2CCC2(C)C(OCCC)CCC32)C1 (stereo unspecified) please.
RESULT: 161 to 163 °C

QUERY: Give me measured melting point, please, for this compound: CCCCCCCCCCCCCCCO
RESULT: 45.5 to 46 °C

QUERY: Write down melting point measured for item CC(C)=C(C)C(C)C
RESULT: -113 °C

QUERY: Specify melting point for O=[N+]([O-])c1ccc(I)cc1 and stop.
RESULT: 173 to 176 °C

QUERY: Return reported melting point. Input compound: CCc1ccc(C)c(C)c1
RESULT: -67 to -66.9 °C

QUERY: # return recorded melting point for input CCCCCCCCCCCCCCCC(=O)OC
RESULT: 30 to 31 °C

QUERY: For the compound CC[Si](CC)(CC)CC , give its measured melting point value.
RESULT: -82.5 to -82 °C

QUERY: In one line, give reported melting point of the entry CC1CC=CCC1 (stereo unspecified) .
RESULT: -116 to -115 °C

QUERY: Please indicate melting point recorded for C=C(C#N)C(=O)OCC
RESULT: -22.5 to -22 °C

QUERY: Given the compound N#CCCC#N , write its reported melting point.
RESULT: 54 to 56 °C

QUERY: Determine its reported melting point: CC(C)(C)c1ccc(O)c(O)c1
RESULT: 54.3 to 55 °C

QUERY: Give melting point for CC(C)[C@@H]1CC[C@@H](C)C[C@H]1O
RESULT: 42 to 44 °C

QUERY: Using known records, supply melting point for O=[N+]([O-])c1ccc(Cl)cc1Cl
RESULT: 30.5 to 34 °C

QUERY: Using known records, supply melting point for C1CCCCC1
RESULT: 6.45 to 7 °C

QUERY: For the compound Oc1ccccc1C(F)(F)F , give its reported melting point.
RESULT: 45.5 to 46 °C

QUERY: Report melting point, nothing else, for this compound: OCCN1CCOCC1
RESULT: -1.6 to 2 °C

QUERY: Give the measured melting point for Ic1ccc(I)s1
RESULT: 41 to 41.5 °C

QUERY: Output melting point of c1ccc2cc3ccccc3cc2c1
RESULT: 215 to 218 °C

QUERY: Quickly give me recorded melting point for NNc1ccccc1
RESULT: 19 to 19.6 °C

QUERY: For CC1=CCC(C(C)(C)O)CC1O (stereo unspecified) , write its melting point.
RESULT: 130 to 131 °C

QUERY: Answer with the recorded melting point for the compound listed here: Nc1ccc([N+](=O)[O-])cc1N
RESULT: 199 to 201 °C

QUERY: Please look at this compound and report its melting point: ClC1c2ccccc2CCc2ccccc21
RESULT: 106 to 107 °C

QUERY: Query melting point for N#CCc1ccc(CC#N)cc1
RESULT: 95 to 96 °C
